# credit: the RepoRT retention time repository

# protocol_description: RP, Restek Raptor Biphenyl, 100 × 2.1 mm, 2.7 µm, 50 °C, 0.4 mL/min, estimated dead time 0.55 min; A: water + 0.1% formic acid, pH 3; B: methanol + 0.1% formic acid, pH 3; gradient (min/%B) 0/5 1.12/5 6.41/99.5 10.01/99.5
# experimental_parameters: stereoisomer not certain
Exercise: for every item that follows, state its recorded LC retention time.
Number in min, nothing else.

Exercise: Consider the compound "CC(=O)N[C@@H](Cc1ccc(O)cc1)C(=O)O" and give its measured LC retention time.
Solution: 2.88

Exercise: Which LC retention time value is on record for "O=[N+]([O-])c1cc(C(F)(F)F)c(Cl)c([N+](=O)[O-])c1Nc1ncc(C(F)(F)F)cc1Cl" ?
Solution: 6.33

Exercise: Field request: LC retention time | item: "CCCCCCCCCCCCCCCCCC(=O)O"
Solution: 6.67

Exercise: Reported LC retention time, compound "O=C(O)CCC(=O)O" : ____
Solution: 0.909

Exercise: Request the reported LC retention time associated with "CCCC[n+]1cccc(S(=O)(=O)[O-])c1"
Solution: 2.67

----------
# protocol_description: RP, Restek Raptor Biphenyl, 100 × 2.1 mm, 2.7 µm, 50 °C, 0.4 mL/min, estimated dead time 0.55 min; A: water + 0.1% formic acid, pH 3; B: methanol + 0.1% formic acid, pH 3; gradient (min/%B) 0/5 1.12/5 6.41/99.5 10.01/99.5
# experimental_parameters: stereoisomer not certain
reported_metric: LC retention time (min)
// units = min; emit number, no label

Exercise: Quick check: LC retention time of "CCCCCCC[n+]1cccc(S(=O)(=O)[O-])c1" ?
Solution: 4.41

Exercise: // LC retention time lookup, key: "N[C@@H](Cc1cc(I)c(O)c(I)c1)C(=O)O"
Solution: 3.59

Exercise: What does the data say about its LC retention time? Entry: "O=C(O)CCCCCCCC(=O)O"
Solution: 4.48

Exercise: Would you kindly share the measured LC retention time for O=C(O)C(O)c1cccc(O)c1 (centres undefined) [3-Hydroxymandelic acid] ?
Solution: 1.52

Exercise: Give the measured LC retention time of Cc1cc2nc3c(=O)[nH]c(=O)nc-3n(CC(O)C(O)C(O)COP(=O)(O)OP(=O)(O)OCC3OC(n4cnc5c(N)ncnc54)C(O)C3O)c2cc1C (centres undefined) .
Solution: 4.07

Exercise: For "CCCCCCCCCCCCCCCC(=O)O" , what is its reported LC retention time?
Solution: 6.54

Exercise: Look up LC retention time for this compound: "CCCCCCCCCCCCCCCCCCCC(=O)O"
Solution: 6.68

Exercise: So what's the measured LC retention time for this one? CC(=O)OCC(=O)C1(O)CCC2C3CCC4=CC(=O)CCC4(C)C3C(O)CC21C (centres undefined) [CORTISOL 21-ACETATE]
Solution: 5.88

Exercise: Give the measured LC retention time of CC(O)(CC(=O)O)CC(=O)O [3-Hydroxy-3-methylglutaric acid] .
Solution: 1.01

Exercise: Would you kindly share the measured LC retention time for Cc1cn(C2CC(O)C(COP(=O)(O)OP(=O)(O)OC3OC(CO)C(O)C(O)C3O)O2)c(=O)[nH]c1=O (centres undefined) ?
Solution: 0.702

Exercise: // lookup LC retention time for "O=C(O)C=Cc1cnc[nH]1"
Solution: 0.718

Exercise: Reported LC retention time for "CCCCCCCCCCCCCCCCCCC[n+]1cccc(S(=O)(=O)[O-])c1" : what is it?
Solution: 6.61

Exercise: Bench note: what LC retention time did "CCCCCCCCCCCCCCCCCCCCCCC(=O)O" show?
Solution: 6.91

Exercise: What value of LC retention time has been recorded for this entry: "CCCCCCCCCCCCCCCCC[n+]1cccc(S(=O)(=O)[O-])c1"
Solution: 6.44

Exercise: Fill blank: measured LC retention time of the compound C#CC(C)(C)NC(=O)c1cc(Cl)cc(Cl)c1 [Propyzamide] is ____.
Solution: 5.6

Exercise: Param item = CC1(c2ccc(Oc3ccccc3)cc2)OC(=O)N(Nc2ccccc2)C1=O (centres undefined) ; retrieve measured LC retention time.
Solution: 6.68

Exercise: Quick one: LC retention time for CSCCC(NC(C)=O)C(=O)O (centres undefined) ?
Solution: 3.04

Exercise: Requested read-out: LC retention time. Entry: O=C(O)CCCCCCCCCO [10-HYDROXYDECANOATE]
Solution: 4.92

Exercise: Value lookup for LC retention time; key = "O=C(O)CCCC(=O)C(=O)O"
Solution: 0.793
